So I've got a bunch of sequences here, and I need their apparent KD of MS2 coat protein values.
system: MS2 coat protein; test: apparent KD of MS2 coat protein; designed switch direction (-1 OFF switch, 1 ON switch): 1; higher = weaker reporter binding; conditions: Eterna round: R95; input ligand: FMN 200 uM
Answers are plain numbers, in nM.

Solved cases (2 shown):
[
  {
    "RESIDUES": "AACUUACGACCACAGGAUAUACUGAGGCGGACAUGAGGAUCACCCAUGUAGGCAAAAUAAGGGCAGUAGAAGGGUGGUCUUUACA [Usbiraxe] (puzzle: Same State 2)",
    "apparent KD of MS2 coat protein (nM)": 18.4
  },
  {
    "RESIDUES": "GUGCAACCGUGUGAGGAUAUCGGUGAAUAGACAUGAGGAUCACCCAUGUCCGAAGCUCGGUUCUCCGAGAAGGCGCACAGUUGCA [Same State 2 - Mod of Erisin v.5] (puzzle: Same State 2)",
    "apparent KD of MS2 coat protein (nM)": 42.8
  }
]

The sequence listed as UCUUGGUUUUUGCUCGUUUUUUGUGUUGAACAUGAGGAUCACCCAUGUAUUGUACGGUCCGGUUUGAUAAUGGUCCG [JMF 13] (puzzle: Sensor for hsa-mir-208a) shows apparent KD of MS2 coat protein equal to 26

* * *

system: K4 kissing-loop RNA reporter; assay: apparent KD of K4 kissing-loop reporter; higher = weaker reporter binding; conditions: Eterna round: R107; input ligand: tryptophan 2.4 mM
So I've got a bunch of sequences here, and I need their apparent KD of K4 kissing-loop reporter values.
Numbers only, in nM.

Solved cases (2 shown):
[
  {
    "RESIDUES": "CCUAUCUCAUACGAUACCAGUCAAAAUAUAAUUAACCAGUGAUGUUGGAUUUACCAAGGAGACCCUUGGCAGCGUAUGGGAUAGG [Ex Theophylline B K4 18]",
    "UNIT": "nM",
    "apparent KD of K4 kissing-loop reporter": 540
  },
  {
    "RESIDUES": "AUAAAUUUGUAGUGAUGUUGCAAGUUAGUCAAGGAUAUCAGGAAACUGAGAAGGUGAUAUCUCCUUUACUUGCAACUAGGAGGAG [KL-SSFMN-A11]",
    "UNIT": "nM",
    "apparent KD of K4 kissing-loop reporter": 85.7
  }
]

Next, consider the following sequence.
Form field, apparent KD of K4 kissing-loop reporter with K4 kissing-loop RNA reporter, item GUAUCGCUAGGAGGAUAUUUCAAAUAAUAAAUAAAUGGAUAUACGGAGUGAUGUUCCGAUUUACGGAAAGAAGGCCUAGUGAUAC [FMN B 1] : 171

* * *

test system: MS2 coat protein; experiment: apparent KD of MS2 coat protein; designed switch direction (-1 OFF switch, 1 ON switch): 1; higher = weaker reporter binding; settings: Eterna round: R95; input ligand: FMN 200 uM
So I've got a bunch of sequences here, and I need their apparent KD of MS2 coat protein values.
Numbers only, in nM.

[
  {
    "RESIDUES": "AUUAUACAUGAGGAUCACCCAUGUCAACAAAGUCGAGGAUAUGGGCAAAUAAAAUAAGAACCAGAAGGCGAAUAAU [salish99_ss1_r3_069] (puzzle: Same State 1)",
    "apparent KD of MS2 coat protein / nM": 51.3
  },
  {
    "RESIDUES": "AAGCGCUGUCGAGAGGAUAUGCGGUGAUGGACAUGAGGAUCACCCAUGUUAGCGAUAGCAUUACGGUAGAAGGCUCUACAGCUGA [Mat - Same State 2 - Mod of UCT - D86] (puzzle: Same State 2)",
    "apparent KD of MS2 coat protein / nM": 28.3
  },
  {
    "RESIDUES": "AAAAGAAGAAGUAAGGAUAUUCAAAAGAAAACAUGAGGAUCACCCAUGUACCAAAAGAAAGAAAAGAAGAAGGUACACAAGAAAA [Same State 2 #3] (puzzle: Same State 2)",
    "apparent KD of MS2 coat protein / nM": 24.7
  }
]

Dear reader, for each entry below, please note its apparent KD of MS2 coat protein.
1. AUAAAACAUGAGGAUCACCCAUGUUAACAAAGUCGAGGAUAUGGGCAAAUAAAAUAAGAACCAGAAGGCGAAUAAU [salish99_ss1_r3_045] (puzzle: Same State 1)
2. UUAAAACAUGAGGAUCACCCAUGUAAUAAUAUGGGAGGAUAUCAGAUUUAAUUUAAUUUAUGAGAAGGCCUAAAUU [Mat - Same State 1 - Mod of Eli - D61] (puzzle: Same State 1)

Marked response:
1: 16.8; 2: 58.7

* * *

test system: MS2 coat protein; assay: apparent KD of MS2 coat protein; designed switch direction (-1 OFF switch, 1 ON switch): 1; higher = weaker reporter binding; conditions: Eterna round: R95; input ligand: FMN 200 uM
So I've got a bunch of sequences here, and I need their apparent KD of MS2 coat protein values.
One number for each entry, in nM.

[
  {
    "RESIDUES": "GACAAUCUAUCUGAGGAUAUCAUGAAGAAAACAUGAGGAUCACCCAUGUGCAGGAGAACUGCAAAUGAGAAGGCAGAUAGAUUGG [Mat - Same State 2 - Mod - D2] (puzzle: Same State 2)",
    "UNIT": "nM",
    "apparent KD of MS2 coat protein": 8.71
  },
  {
    "RESIDUES": "AGUCCAGCCUGAGCUGGACAAAAGCAUGUACAUGAGGAUCACCCAUGUCAUGUACAAGCUUUUUGCUCGUAAUAAUA [Mat - hsa-mir-208a - Mod of JL - D31] (puzzle: Sensor for hsa-mir-208a)",
    "UNIT": "nM",
    "apparent KD of MS2 coat protein": 301
  },
  {
    "RESIDUES": "AUUUAACAAGCUUUUUGCUCGUCUUAUAAACAUGAGGAUCACCCAUGUAAUAGCGUGAGAGUAAUUAUUUAAAUAAU [JMF 94] (puzzle: Sensor for hsa-mir-208a)",
    "UNIT": "nM",
    "apparent KD of MS2 coat protein": 16.1
  },
  {
    "RESIDUES": "AGGGCCGCGGCACAGGAUAUGCACAGGUUCACAUGAGGAUCACCCAUGUGCUCUAGAUAGCUUGAGCAGAAGGGUGUCAUGGUAA [Beadi] (puzzle: Same State 2)",
    "UNIT": "nM",
    "apparent KD of MS2 coat protein": 16.3
  }
]

Next, consider the following sequence.
Form field, apparent KD of MS2 coat protein with MS2 coat protein, item GGAGAGAGAGCACAGGAUAUUUAAGGAGAGACAUGAGGAUCACCCAUGUGAGAGAGAGAGGAGAGAGAGAAGGGUGAGAGAGAGG [Altered State 2-17 - Jieux - Same State 2] (puzzle: Same State 2) : 109

* * *

tested on: K4 kissing-loop RNA reporter; assay: apparent KD of K4 kissing-loop reporter; higher = weaker reporter binding; conditions: Eterna round: R107; input ligand: theophylline 20 uM;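 also: bound reporter read as fluorescence of individual clusters on recovered sequencing chips by microscopy, with normalized cluster intensities fitted with a binding model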
So I've got a bunch of sequences here, and I need their apparent KD of K4 kissing-loop reporter values.
Numbers only, in nM.

Solved cases (2 shown):
[
  {
    "RESIDUES": "AAACAUCACUGGGAGUGAUGUUCUCAGUGACGAGGACCGGUACGGCCGCCACUCGCGAGAGAUAUAAUUAAGUAAUGACAUCAUU [Excl Tryptophan A V6]",
    "apparent KD of K4 kissing-loop reporter (nM)": 341
  },
  {
    "RESIDUES": "CAUACGCAUGGAGGAUAUGAGAUUACUCAUAUUACCCUGUAACAGGUAUCUCAGUGAUGUUGAGACUCAGAAGGCCAUGUGUAUG [Ex FMN B 22]",
    "apparent KD of K4 kissing-loop reporter (nM)": 435
  }
]

Form field, apparent KD of K4 kissing-loop reporter with K4 kissing-loop RNA reporter, item AGGAUCACGUCAGUGAUGUUGACAAGAGAUACCAGAGACGAAAGUCUCCCUUGGCAGCUCACUGUGAUCCGUGACAAAGGUCACA [Omei KL hio A SS C v1] : 154

* * *

system: MS2 coat protein; assay: apparent KD of MS2 coat protein; designed switch direction (-1 OFF switch, 1 ON switch): -1; higher = weaker reporter binding; settings: Eterna round: R95; input ligand: microRNA oligo, concentration not stated
So I've got a bunch of sequences here, and I need their apparent KD of MS2 coat protein values.
One number for each entry, in nM.

[
  {
    "RESIDUES": "GUGUAGUCAGGAUAUACAUAGGAAGAGAAGAGAAGAGAAGGACAUGAGGAUCACCCAUGUAGAAGGGACAGUGU [Excluse me!! 5 - Jieux - Exclusion 2] (puzzle: Exclusion 2)",
    "apparent KD of MS2 coat protein, nM": 43.6
  },
  {
    "RESIDUES": "CUGGUCCGAGGAUAUAUUAAGUGAUACAUGAGGAUCACCCAUGUAAUUUGAUGGAUGUAAAUAGAAGGCGGACUAG [JL-ex5-3.10] (puzzle: Exclusion 5)",
    "apparent KD of MS2 coat protein, nM": 63.5
  },
  {
    "RESIDUES": "AAUAACAGAGGAUAUACUAUUUUAUGUGUUUGUUAUUUUGAACAUGAGGAUCACCCAUGUAGAAGGCUGAAUAA [JMF 22] (puzzle: Exclusion 2)",
    "apparent KD of MS2 coat protein, nM": 21.7
  },
  {
    "RESIDUES": "CAGUACUGAGGAUAUACAUGAGGAUCACCCAUGUCCCAAAAGUAGGAUACUACUAUUAGUAGAAGGCAGUACUG [Fiskers Ex 3 828 mod 25] (puzzle: Exclusion 3)",
    "apparent KD of MS2 coat protein, nM": 38.9
  }
]

Dear reader, for each entry below, please note its apparent KD of MS2 coat protein.
1. AUAAACGCAGGAUAUACAUGAGGAUCACCCAUGUAAAUUUUAAAAUAAAUAAAUAGAUGUAGAAGGGCGAAAUA [Lollin - Gamma 1] (puzzle: Exclusion 3)
2. AGUACUAACACGGCUGUGUUAGUACAAUAAGCUUGUGAAACAUGAGGAUCACCCAUGUCCUCAUAAGCUCGUCUUAU [salish99_TOv2_r3_078] (puzzle: Sensor v3, turn-off variant 2)
3. GGUUGGCGAGGAUAUACAUGAGGAUCACCCAUGUGAGAGACAAAAGUGAGGAAGAAAAGUAGAAGGCGCUGACG [salish99_ex3_r3_022] (puzzle: Exclusion 3)
4. AGUACUAACACGAAAGUGUUAGUACAAUAAGCUUGUGGUACAUGAGGAUCACCCAUGUCCUCAUAAGCUCGUCUUAU [JL-sv3-2.13 mat747 mod] (puzzle: Sensor v3, turn-off variant 2)

Marked response:
1: 28.2; 2: 580; 3: 84.5; 4: 62.2

Dear reader, for each entry below, please note its apparent KD of MS2 coat protein.
1. GCCUCACAUGAGGAUCACCCAUGUCAGGAUAUAGGAGACGGUAGCUUUGCUGCCUUCGCUAGAAGGGACUGGCU (puzzle: Exclusion 1)
2. CCAUCGAGUGUGAGGAUAUGCUGGUCCUUGGAUCAGCAGAAGGCACAUGAGGAUCACCCAUGUGGAUACGGUGG [JL bmx4 3.19] (puzzle: Brourd's mod of Exclusion 4)
3. GGAUCGAAUGUCAGGAUAUACCACUGGAUACAGUGGUAGAAGGGACAUGAGGAUCACCCAUGUGUUAUCGAUCC [Fiskers BMX 4 - 56] (puzzle: Brourd's mod of Exclusion 4)
4. AAAUAACAAGCGAGAUCCUACAUGAGGAUCACCCAUGUGCUCGUCUUAAGAAGUACUAUCACGAAAGUGAUAGUACA [Mat - Sensor v3 - turn-off var 1 - Eli Mod - D68] (puzzle: Sensor v3, turn-off variant 1)

Marked response:
29.7
30
36.5
66

Dear reader, for each entry below, please note its apparent KD of MS2 coat protein.
1. UUUAUGUCAGGAUAUGAUUAGAUCUACUUCGGUAGAUCUAAUCAGAAGGGACAUGAGGAUCACCCAUGUAGUUU [Ex4 - 3 - 13] (puzzle: Exclusion 4)
2. UAAAACCUAGGAUAUACAUGAGGAUCACCCAUGUUCGAAGGAGCCCAAGUGACUUCUAGUAGAAGGAGGGCGAA [Aratisedso] (puzzle: Exclusion 3)
3. UCGAAGCUAGGAUAUACAUGAGGAUCACCCAUGUGAGUAAUAACUUGGAGAUACCUCCGUAGAAGGAGCACAAA [Beatdienat] (puzzle: Exclusion 3)
4. UAAGAGUGAGGAUAUACGUCGCUGGUCCGGAUGGACGCAUGACAUGAGGAUCACCCAUGUAGAAGGCACAAAAC [Enxela] (puzzle: Exclusion 2)

Marked response:
[119, 18.8, 107, 26.8]
